Measured IC50 of individual entries
molecular target: UniProt:P23458; experiment: Inhibition test on JAK-1 kinase (FRET peptide substrate assay); type: biochemical; settings: kinase 1 nM, 1 h at room temperature
Sequence (P23458 whole entry): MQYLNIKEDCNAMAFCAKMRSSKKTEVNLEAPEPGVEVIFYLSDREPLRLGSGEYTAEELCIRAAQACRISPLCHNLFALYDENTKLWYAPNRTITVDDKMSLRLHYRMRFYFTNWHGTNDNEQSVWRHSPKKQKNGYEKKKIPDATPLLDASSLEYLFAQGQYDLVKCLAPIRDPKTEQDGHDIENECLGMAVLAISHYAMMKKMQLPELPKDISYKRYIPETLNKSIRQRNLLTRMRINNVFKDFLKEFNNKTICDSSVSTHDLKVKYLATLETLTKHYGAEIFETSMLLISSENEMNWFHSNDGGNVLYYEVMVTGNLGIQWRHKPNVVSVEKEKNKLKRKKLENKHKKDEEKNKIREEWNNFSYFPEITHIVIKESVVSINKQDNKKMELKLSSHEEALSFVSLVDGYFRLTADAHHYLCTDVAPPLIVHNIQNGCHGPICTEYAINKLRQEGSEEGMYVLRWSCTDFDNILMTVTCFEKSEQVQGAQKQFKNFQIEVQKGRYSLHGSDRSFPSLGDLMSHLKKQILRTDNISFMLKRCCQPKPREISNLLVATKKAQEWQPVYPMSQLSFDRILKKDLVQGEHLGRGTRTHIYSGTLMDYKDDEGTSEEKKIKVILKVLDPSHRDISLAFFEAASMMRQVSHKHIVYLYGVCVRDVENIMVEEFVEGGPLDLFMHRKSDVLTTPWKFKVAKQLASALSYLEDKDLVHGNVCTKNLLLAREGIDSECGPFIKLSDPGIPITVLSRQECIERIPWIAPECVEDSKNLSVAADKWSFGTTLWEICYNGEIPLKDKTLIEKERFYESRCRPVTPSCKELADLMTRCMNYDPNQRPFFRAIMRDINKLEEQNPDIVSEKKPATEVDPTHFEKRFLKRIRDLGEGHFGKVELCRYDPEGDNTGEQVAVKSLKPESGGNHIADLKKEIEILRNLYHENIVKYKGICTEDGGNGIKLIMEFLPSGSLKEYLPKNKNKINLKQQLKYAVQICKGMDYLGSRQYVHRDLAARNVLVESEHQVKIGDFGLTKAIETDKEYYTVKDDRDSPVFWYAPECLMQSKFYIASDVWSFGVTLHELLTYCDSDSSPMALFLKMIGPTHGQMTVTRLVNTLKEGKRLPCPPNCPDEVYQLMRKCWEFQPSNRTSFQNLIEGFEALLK
Reply numerically in nM, unit not repeated.

smiles-notation: C/C=C/C(=O)Nc1ccc(Cn2ncc3cnc(Nc4cnn(CCOC)c4)nc32)cc1
val: 918

Print UniProt:P23458 IC50 for "C/C=C/C(=O)Nc1cccc(Cn2ncc3cnc(Nc4ccc(N5CCOCC5)cc4)nc32)c1" .
890

Print UniProt:P23458 IC50 for "C/C=C/C(=O)Nc1cccc(Cn2ncc3cnc(Nc4cnn(C)c4)nc32)c1" .
618

Print UniProt:P23458 IC50 for "C=CC(=O)Nc1ccc(Cn2ncc3cnc(Nc4cnn(CCO)c4)nc32)cc1" .
1420

---

biological target: JAK-3 (Homo sapiens (Human)); experiment: Inhibition test on JAK-3 kinase (FRET peptide substrate assay); format: biochemical; conditions: kinase 1 nM, 1 h at room temperature; read-out: IC50 (nM) JAK-3
Sequence (P52333 whole entry): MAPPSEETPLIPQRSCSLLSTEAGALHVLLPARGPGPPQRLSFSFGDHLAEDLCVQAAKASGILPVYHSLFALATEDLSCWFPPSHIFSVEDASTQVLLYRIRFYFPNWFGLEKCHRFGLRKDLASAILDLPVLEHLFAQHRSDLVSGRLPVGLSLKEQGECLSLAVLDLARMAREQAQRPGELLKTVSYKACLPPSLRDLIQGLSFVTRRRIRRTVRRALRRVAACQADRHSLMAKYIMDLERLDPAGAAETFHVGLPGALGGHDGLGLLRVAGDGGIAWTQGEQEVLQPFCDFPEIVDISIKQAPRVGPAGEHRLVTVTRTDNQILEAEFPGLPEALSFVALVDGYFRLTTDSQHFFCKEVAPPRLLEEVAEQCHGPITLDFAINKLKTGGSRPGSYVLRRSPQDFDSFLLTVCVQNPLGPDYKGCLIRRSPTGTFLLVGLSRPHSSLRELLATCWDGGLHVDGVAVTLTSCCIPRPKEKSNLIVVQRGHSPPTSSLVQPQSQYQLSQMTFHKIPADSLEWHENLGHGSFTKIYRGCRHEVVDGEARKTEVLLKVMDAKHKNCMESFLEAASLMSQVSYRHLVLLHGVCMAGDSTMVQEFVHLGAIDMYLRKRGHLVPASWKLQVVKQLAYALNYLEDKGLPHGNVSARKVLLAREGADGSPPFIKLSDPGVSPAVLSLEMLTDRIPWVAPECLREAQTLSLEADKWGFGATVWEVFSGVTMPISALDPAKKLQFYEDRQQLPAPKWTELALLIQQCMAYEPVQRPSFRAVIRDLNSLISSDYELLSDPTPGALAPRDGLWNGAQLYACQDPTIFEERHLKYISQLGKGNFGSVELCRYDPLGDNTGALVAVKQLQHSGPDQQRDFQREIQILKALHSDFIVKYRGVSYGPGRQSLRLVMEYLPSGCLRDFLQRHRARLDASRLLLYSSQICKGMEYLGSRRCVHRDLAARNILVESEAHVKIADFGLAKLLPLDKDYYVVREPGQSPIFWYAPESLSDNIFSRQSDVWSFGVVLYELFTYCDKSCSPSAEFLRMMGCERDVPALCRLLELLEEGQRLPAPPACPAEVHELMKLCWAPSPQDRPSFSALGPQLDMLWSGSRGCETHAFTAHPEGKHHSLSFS
Measured IC50 of individual entries
Reply numerically in nM, unit not repeated.

Worked examples, 3 compounds total:
compound: C=CC(=O)Nc1ccc(Cn2ncc3cnc(Nc4cnn(CCO)c4)nc32)cc1 [Example 17]
IC50 / nM: 2
//
compound: C/C=C/C(=O)Nc1cccc(Cn2ncc3cnc(Nc4ccc(N5CCN(C)CC5)cc4)nc32)c1 [Example 14]
IC50 / nM: 0.9
//
compound: C=CC(=O)Nc1cccc(Cn2ncc3cnc(Nc4ccc(N5CCOCC5)cc4)nc32)c1 [Example 6]
IC50 / nM: 0.1

API: the following record is the query input.
Identify IC50 associated with the compound C=CC(=O)Nc1cccc(Cn2ncc3cnc(Nc4cnn(CCO)c4)nc32)c1 [Example 3]
0.13

---

molecular target: UniProt P52333; test: Inhibition test on JAK-3 kinase (FRET peptide substrate assay); type: biochemical; conditions: differs from Table 5; read-out: JAK-3 inhibitory activity IC50
readout-type: pIC50
Quick note: pIC50 means taking -log10 of the concentration in moles per liter.

Identify pIC50 associated with the compound "C=CC(=O)Nc1cccc(Cn2ncc3cnc(Nc4cnn(CCOC)c4)nc32)c1"
10.07

---

target: JAK-2 (Homo sapiens (Human), UniProt O60674); experiment: Inhibition test on JAK-2 kinase (FRET peptide substrate assay); assay type: biochemical; conditions: kinase 1 nM, 1 h at room temperature
Sequence (O60674 whole entry): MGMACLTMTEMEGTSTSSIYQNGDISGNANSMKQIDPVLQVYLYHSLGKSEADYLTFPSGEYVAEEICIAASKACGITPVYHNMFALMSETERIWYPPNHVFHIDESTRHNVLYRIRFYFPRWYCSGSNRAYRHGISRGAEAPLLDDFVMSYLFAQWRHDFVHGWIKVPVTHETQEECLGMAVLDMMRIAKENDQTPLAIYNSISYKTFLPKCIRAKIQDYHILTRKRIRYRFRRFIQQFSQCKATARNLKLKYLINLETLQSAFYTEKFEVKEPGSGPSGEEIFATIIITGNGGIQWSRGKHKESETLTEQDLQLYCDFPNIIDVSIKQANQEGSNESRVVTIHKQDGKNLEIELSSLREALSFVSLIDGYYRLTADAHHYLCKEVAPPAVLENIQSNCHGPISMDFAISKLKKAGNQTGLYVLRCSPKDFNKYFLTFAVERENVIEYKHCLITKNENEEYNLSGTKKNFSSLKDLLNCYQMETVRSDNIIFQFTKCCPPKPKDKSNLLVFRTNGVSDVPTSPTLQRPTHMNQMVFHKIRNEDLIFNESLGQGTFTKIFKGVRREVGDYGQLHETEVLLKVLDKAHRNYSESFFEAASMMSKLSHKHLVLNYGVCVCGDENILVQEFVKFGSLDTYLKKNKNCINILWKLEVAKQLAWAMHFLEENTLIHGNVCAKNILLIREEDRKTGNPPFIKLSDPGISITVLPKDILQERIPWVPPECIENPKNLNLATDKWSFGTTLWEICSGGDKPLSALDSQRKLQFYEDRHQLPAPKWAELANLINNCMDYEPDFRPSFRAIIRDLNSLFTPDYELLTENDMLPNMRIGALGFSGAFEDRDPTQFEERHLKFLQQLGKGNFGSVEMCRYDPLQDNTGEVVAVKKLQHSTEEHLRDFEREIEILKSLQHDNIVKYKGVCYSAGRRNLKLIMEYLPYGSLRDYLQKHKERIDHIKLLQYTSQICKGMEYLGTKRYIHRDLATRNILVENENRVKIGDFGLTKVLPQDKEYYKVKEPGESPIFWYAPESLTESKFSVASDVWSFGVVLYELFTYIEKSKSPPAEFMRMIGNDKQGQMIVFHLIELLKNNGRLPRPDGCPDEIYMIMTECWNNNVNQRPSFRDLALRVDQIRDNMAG
Measured IC50 of individual entries
Reply numerically in nM, unit not repeated.

Worked examples, 5 compounds total:
smiles-notation: C=CC(=O)Nc1cccc(Cn2ncc3cnc(Nc4cnn(CCOC)c4)nc32)c1
IC50 [nM]: 747

smiles-notation: C/C=C/C(=O)Nc1ccc(Cn2ncc3cnc(Nc4cnn(CCOC)c4)nc32)cc1
IC50 [nM]: 1250

smiles-notation: C=CC(=O)Nc1ccc(Cn2ncc3cnc(Nc4ccc(N5CCN(C)CC5)cc4)nc32)cc1
IC50 [nM]: 1800

smiles-notation: C/C=C/C(=O)Nc1ccc(Cn2ncc3cnc(Nc4ccc(F)cc4)nc32)cc1
IC50 [nM]: 804

smiles-notation: C=CC(=O)Nc1ccc(Cn2ncc3cnc(Nc4ccc(N5CCOCC5)cc4)nc32)cc1
IC50 [nM]: 892

Identify IC50 associated with the compound "C=CC(=O)Nc1cccc(Cn2ncc3cnc(Nc4ccc(N5CCOCC5)cc4)nc32)c1"
3100

Identify IC50 associated with the compound "C/C=C/C(=O)Nc1ccc(Cn2ncc3cnc(Nc4ccccc4)nc32)cc1"
1040

Identify IC50 associated with the compound "C=CC(=O)Nc1cccc(Cn2ncc3cnc(Nc4ccc(F)cc4)nc32)c1"
1800
